Each entry below lists one item and its recorded Hemolytic activity (%) value.
# Test system: horse erythrocytes
# Assay conditions: red cells of horse, 50 µM
Ends that are not written are not given here.
Give your result in % as a bare value.

Substance	Hemolytic activity (%)
NIKISGKWKAQKRFLK-NH2 [BPI(84-99), NIKISGKWKAQKRFLK-NH2, reference compound]	7
RVQGRWKVRASFFK-NH2 [LBP-14, RVQGRWKVRASFFK-NH2, reference compound]	7

In: # Hemolytic activity (%) lookup, item RKVRGPP-NH2 [Lf(28-34), RKVRGPP-NH2, reference compound]
Out: 1

In: # Hemolytic activity (%) lookup, item YVKLWRMIKFIR-NH2 [YW12D, YVKLWRMIKFIR-NH2, reference compound]
Out: 12

* * *

# Test system: horse erythrocytes
# Assay conditions: red cells of horse, 50 µM
Square brackets hold non-standard residues; d marks the D form. Peptide text beside a SMILES is read from it. * marks the point of attachment. Butyryl = CCCC(=O)*
Quantity: Hemolytic activity (%)
Give your result in % as a bare value.

Compound	Target desc	Unit abbreviation	Hemolytic activity (%)
CCCCCC(=O)NCCCC[C@H](NC(=O)[C@H](Cc1ccc(O)cc1)NC(=O)[C@H](CCCCN)NC(=O)[C@H](CC(C)C)NC(=O)[C@@H](NC(=O)[C@H](CCCCN)NC(=O)[C@H](CCCCN)NC(=O)[C@@H](Cc1ccccc1)NC(=O)[C@H](CC(C)C)NC(=O)[C@H](CCCCN)NC(=O)[C@H](CCCCN)NC(C)=O)[C@@H](C)CC)C(N)=O	horse erythrocytes	%	0

In: # Hemolytic activity (%) lookup, item CCCC(=O)NCCCC[C@H](NC(=O)[C@H](CCCCN)NC(=O)[C@H](CCCCN)NC(C)=O)C(=O)N[C@H](Cc1ccccc1)C(=O)N[C@@H](CCCCN)C(=O)N[C@@H](CCCCN)C(=O)N[C@@H](CCCCN)C(=O)N[C@@H](CC(C)C)C(=O)N[C@@H](CCCCN)C(=O)N[C@@H](Cc1ccc(O)cc1)C(=O)N[C@@H](CC(C)C)C(N)=O [BP546, Ac-KKK(COC3H7)fKKKLKYL-NH2] (Ac-KKK(Butyryl)[dF]KKKLKYL-NH2)
Out: 0

In: # Hemolytic activity (%) lookup, item CCCC(=O)NCCCC[C@H](NC(C)=O)C(=O)N[C@@H](CCCCN)C(=O)N[C@@H](CC(C)C)C(=O)N[C@H](Cc1ccccc1)C(=O)N[C@@H](CCCCN)C(=O)N[C@@H](CCCCN)C(=O)N[C@H](C(=O)N[C@@H](CC(C)C)C(=O)N[C@@H](CCCCN)C(=O)N[C@@H](Cc1ccc(O)cc1)C(=O)N[C@@H](CC(C)C)C(N)=O)[C@@H](C)CC
Out: 5

* * *

Each entry below lists one item and its recorded Phytotoxicity: diameter of the lesion value.
# Tested on: tobacco leaves
# Assay conditions: 150 µM; after 48 h
Give your result in mm as a bare value.

Consider the worked cases shown below.
CCCCCC(=O)NCCCC[C@H](NC(=O)[C@H](CCCCN)NC(=O)[C@H](CCCCN)NC(=O)[C@@H](Cc1ccccc1)NC(=O)[C@H](CC(C)C)NC(=O)[C@H](CCCCN)NC(=O)[C@H](CCCCN)NC(C)=O)C(=O)N[C@@H](CC(C)C)C(=O)N[C@@H](CCCCN)C(=O)N[C@@H](Cc1ccc(O)cc1)C(=O)N[C@@H](CC(C)C)C(N)=O 6
CCCC(=O)NCCCC[C@@H](NC(=O)[C@H](CC(C)C)NC(=O)[C@H](CCCCN)NC(=O)[C@H](CCCCN)NC(C)=O)C(=O)N[C@@H](CCCCN)C(=O)N[C@@H](CCCCN)C(=O)N[C@H](C(=O)N[C@@H](CC(C)C)C(=O)N[C@H](C(=O)N[C@@H](Cc1ccc(O)cc1)C(=O)N[C@@H](CC(C)C)C(N)=O)[C@@H](C)CC)[C@@H](C)CC 2

Read the next record carefully.
In: # Phytotoxicity: diameter of the lesion lookup, item CCCC(=O)NCCCC[C@H](NC(C)=O)C(=O)N[C@@H](CCCCN)C(=O)N[C@@H](CC(C)C)C(=O)N[C@H](Cc1ccccc1)C(=O)N[C@@H](CCCCN)C(=O)N[C@@H](CCCCN)C(=O)N[C@H](C(=O)N[C@@H](CC(C)C)C(=O)N[C@@H](CCCCN)C(=O)N[C@@H](Cc1ccc(O)cc1)C(=O)N[C@@H](CC(C)C)C(N)=O)[C@@H](C)CC
Out: 4

* * *

# Tested on: horse erythrocytes
# Assay conditions: red cells of horse, 50 µM
Each entry below lists one item and its recorded Hemolytic activity (%) value.
Give your result in % as a bare value.

Consider the worked cases shown below.
CCCC(=O)NCCCC[C@H](NC(=O)[C@H](CCCCN)NC(=O)[C@H](CC(C)C)NC(=O)[C@@H](NC(=O)[C@H](CCCCN)NC(=O)[C@H](CCCCN)NC(=O)[C@@H](Cc1ccccc1)NC(=O)[C@H](CC(C)C)NC(=O)[C@H](CCCCN)NC(=O)[C@H](CCCCN)NC(C)=O)[C@@H](C)CC)C(=O)N[C@@H](CC(C)C)C(N)=O 0
CCCC(=O)NCCCC[C@H](NC(=O)[C@@H](NC(=O)[C@H](CCCCN)NC(=O)[C@H](CCCCN)NC(=O)[C@H](Cc1ccccc1)NC(=O)[C@H](CC(C)C)NC(=O)[C@H](CCCCN)NC(=O)[C@H](CCCCN)NC(C)=O)[C@@H](C)CC)C(=O)N[C@@H](CCCCN)C(=O)N[C@@H](Cc1ccc(O)cc1)C(=O)N[C@@H](CC(C)C)C(N)=O 4
CCCC(=O)NCCCC[C@H](NC(=O)[C@@H](NC(=O)[C@H](CCCCN)NC(=O)[C@H](CCCCN)NC(=O)[C@@H](Cc1ccccc1)NC(=O)[C@H](CC(C)C)NC(=O)[C@H](CCCCN)NC(=O)[C@H](CCCCN)NC(C)=O)[C@@H](C)CC)C(=O)N[C@@H](CCCCN)C(=O)N[C@@H](Cc1ccc(O)cc1)C(=O)N[C@@H](CC(C)C)C(N)=O 0
CCCC(=O)NCCCC[C@H](NC(=O)[C@H](CCCCN)NC(=O)[C@H](CCCCN)NC(C)=O)C(=O)N[C@H](Cc1ccccc1)C(=O)N[C@@H](CCCCN)C(=O)N[C@@H](CCCCN)C(=O)N[C@H](C(=O)N[C@@H](CC(C)C)C(=O)N[C@@H](CCCCN)C(=O)N[C@@H](Cc1ccc(O)cc1)C(=O)N[C@@H](CC(C)C)C(N)=O)[C@@H](C)CC 1
CCCC(=O)NCCCC[C@H](NC(=O)[C@@H](Cc1ccccc1)NC(=O)[C@H](CC(C)C)NC(=O)[C@H](CCCCN)NC(=O)[C@H](CCCCN)NC(C)=O)C(=O)N[C@@H](CCCCN)C(=O)N[C@H](C(=O)N[C@@H](CC(C)C)C(=O)N[C@@H](CCCCN)C(=O)N[C@@H](Cc1ccc(O)cc1)C(=O)N[C@@H](CC(C)C)C(N)=O)[C@@H](C)CC 9

Read the next record carefully.
In: # Hemolytic activity (%) lookup, item CCCC(=O)NCCCC[C@H](NC(=O)[C@H](CC(C)C)NC(=O)[C@@H](NC(=O)[C@H](CCCCN)NC(=O)[C@H](CCCCN)NC(=O)[C@@H](Cc1ccccc1)NC(=O)[C@H](CC(C)C)NC(=O)[C@H](CCCCN)NC(=O)[C@H](CCCCN)NC(C)=O)[C@@H](C)CC)C(=O)N[C@@H](Cc1ccc(O)cc1)C(=O)N[C@@H](CC(C)C)C(N)=O
Out: 2

* * *

# Test system: tobacco leaves
# Assay conditions: 150 µM; after 48 h
Ends that are not written are not given here.
Quantity: Phytotoxicity: diameter of the lesion (mm)
Give your result in mm as a bare value.

Substance	Value reported
YVKLWRMIKFIR-NH2 [YW12D, YVKLWRMIKFIR-NH2, reference compound]	1

In: # Phytotoxicity: diameter of the lesion lookup, item RKVRGPP-NH2 [Lf(28-34), RKVRGPP-NH2, reference compound]
Out: 0

In: # Phytotoxicity: diameter of the lesion lookup, item RVQGRWKVRASFFK-NH2 [LBP-14, RVQGRWKVRASFFK-NH2, reference compound]
Out: 1

In: # Phytotoxicity: diameter of the lesion lookup, item NIKISGKWKAQKRFLK-NH2 [BPI(84-99), NIKISGKWKAQKRFLK-NH2, reference compound]
Out: 1

* * *

# Tested on: E. coli 0111:B4 LPS
# Type: biochemical, Escherichia coli
Square brackets hold non-standard residues; d marks the D form. Peptide text beside a SMILES is read from it. * marks the point of attachment. Butyryl = CCCC(=O)*
Quantity: LPS neutralization Ratio (treatment/NTC)

Consider the worked cases shown below.
Compound	LPS neutralization Ratio (treatment/NTC)
CCCC(=O)NCCCC[C@H](NC(=O)[C@H](Cc1ccc(O)cc1)NC(=O)[C@H](CCCCN)NC(=O)[C@H](CC(C)C)NC(=O)[C@@H](NC(=O)[C@H](CCCCN)NC(=O)[C@H](CCCCN)NC(=O)[C@@H](Cc1ccccc1)NC(=O)[C@H](CC(C)C)NC(=O)[C@H](CCCCN)NC(=O)[C@H](CCCCN)NC(C)=O)[C@@H](C)CC)C(N)=O [BP496, Ac-KKLfKKILKYK(COC3H7)-NH2] (Ac-KKL[dF]KKILKYK(Butyryl)-NH2)	0,92
CCCC(=O)NCCCC[C@H](NC(C)=O)C(=O)N[C@@H](CCCCN)C(=O)N[C@@H](CC(C)C)C(=O)N[C@H](Cc1ccccc1)C(=O)N[C@@H](CCCCN)C(=O)N[C@@H](CCCCN)C(=O)N[C@H](C(=O)N[C@@H](CC(C)C)C(=O)N[C@@H](CCCCN)C(=O)N[C@@H](Cc1ccc(O)cc1)C(=O)N[C@@H](CC(C)C)C(N)=O)[C@@H](C)CC [BP545, Ac-K(COC3H7)KLfKKILKYL-NH2]	0,56

Read the next record carefully.
In: # LPS neutralization Ratio (treatment/NTC) lookup, item CCCC(=O)NCCCC[C@H](NC(=O)[C@H](CCCCN)NC(=O)[C@H](CCCCN)NC(=O)[C@@H](Cc1ccccc1)NC(=O)[C@H](CC(C)C)NC(=O)[C@H](CCCCN)NC(=O)[C@H](CCCCN)NC(C)=O)C(=O)N[C@@H](CC(C)C)C(=O)N[C@@H](CCCCN)C(=O)N[C@@H](Cc1ccc(O)cc1)C(=O)N[C@@H](CC(C)C)C(N)=O [BP548, Ac-KKLfKKK(COC3H7)LKYL-NH2]
Out: 0,65
